Test system: RPMI-8226 leukemia
Test: NCI tumour cell line growth inhibition, 48 h; in the data active = GI50 below about 0.43 µM; inactive = the rest
In this exercise, the only acceptable responses are 1 (yes) for active, 0 (no) for inactive

In: What was the test verdict on COc1cc(C2SCC(=O)N2c2ncc(C)s2)cc(OC)c1OC (stereo not drawn) ?
Out: 0 (no)

In: Would you mind doing CO/N=C(\C)c1ccc(Nc2cc(-c3ccccc3)nc3ccc(OC)cc23)cc1 as well?
Out: 0 (no)

In: Would you mind doing COc1cccc(NC(=O)c2sc3nc(C)c(C(O)c4ccccc4)cc3c2N)c1 (stereo not drawn) as well?
Out: 1 (yes)

In: Would you mind doing O=C(Nc1ccc(-n2ccc3c(NC(=O)c4ccccc4)ncnc32)cc1)Nc1ccc(Cl)c(Cl)c1 as well?
Out: 0 (no)

In: Would you mind doing c1ccc(CN2COc3c(ccc4c3OCN(Cc3ccccc3)C4)C2)cc1 as well?
Out: 0 (no)

In: Would you mind doing S=C(Nc1ccc(-c2nc3ccccc3[nH]2)cc1)Nc1ccc(-c2nc3ccccc3[nH]2)cc1 as well?
Out: 0 (no)

In: Would you mind doing C=CC(=O)Nc1cc(C)ccc1Nc1nc(Nc2cc(OC)ncc2C)ncc1C(F)(F)F as well?
Out: 0 (no)

In: Would you mind doing Cc1nnc(-c2cccc(-c3ccc(C(=O)NCC4CC4)cc3)c2)o1 as well?
Out: 0 (no)

In: Would you mind doing COc1cc(NCCCN=C(N)NC(N)=NC(C)C)c2ncccc2c1 as well?
Out: 0 (no)

In: Would you mind doing COc1cc(C(=O)N2CCN(c3ncnc4ccccc34)CC2)c(N)cc1OCc1ccccc1 as well?
Out: 0 (no)

In: Would you mind doing O=C(Nc1ccc(Cl)c(Cl)c1)Nc1c(Oc2ccc(Cl)c(Cl)c2)ccc(Cl)c1S(=O)(=O)O as well?
Out: 0 (no)

In: Would you mind doing [N-]=[N+]=NCCCCCC(=O)OC(C(=O)c1ccccc1)c1cccc(OCC(=O)NCCOCCOCCNC(=O)CCCC[C@@H]2SC[C@@H]3NC(=O)N[C@@H]32)c1 (stereo partly drawn) as well?
Out: 0 (no)

In: Would you mind doing Nc1c(C(=O)Nc2cccc(F)c2)sc2nc3c(cc12)C(=O)CCC3 as well?
Out: 0 (no)
